- Tested on: Mus musculus
- test-summary: Toxicity in ip dosed C3H X DBA2 F1 hybrid mouse […] with mouse L1210 cells on day 0 and dosed once daily on days 1 to 5 measured after 50 days
- Assay type: organism-based
- experimental-setup: in vivo, 1200 h
reported-endpoint: LD10 (mg/kg)
Give bare numbers, in mg/kg.

Some entries whose results are on file:
• C[n+]1ccc(Nc2ccc(NC(=O)c3ccc(Nc4cc[n+](C)c5cc(N)ccc45)cc3)cc2)cc1.[Br-].[Br-] = 11
• CC[n+]1ccc(Nc2ccc(NC(=O)/C=C/c3ccc(/C=C/C(=O)Nc4ccc(Nc5cc[n+](CC)cc5)cc4)cc3)cc2)cc1.Cc1ccc(S(=O)(=O)[O-])cc1.Cc1ccc(S(=O)(=O)[O-])cc1 = 32
• CCC[n+]1cccc(NC(=O)c2ccc(NC(=O)c3ccc(C(=O)Nc4ccc[n+](CCC)c4)cc3)cc2)c1.Cc1ccc(S(=O)(=O)[O-])cc1.Cc1ccc(S(=O)(=O)[O-])cc1 = 15
• C[n+]1cccc(NC(=O)c2ccc(NC(=O)c3ccc(C(=O)Nc4ccc(C(=O)Nc5ccc[n+](C)c5)c(Cl)c4)cc3)cc2Cl)c1.Cc1ccc(S(=O)(=O)[O-])cc1.Cc1ccc(S(=O)(=O)[O-])cc1 = 26
• CC[n+]1ccc(Nc2ccc(NC(=O)c3ccc(Nc4cc[n+](CC)c5ccc(N)cc45)cc3)cc2)cc1.[Br-].[Br-] = 10
• C[n+]1cccc(NC(=O)c2ccc(NC(=O)c3ccc(C(=O)Nc4ccc(C(=O)Nc5ccc[n+](C)c5)cc4)cc3)cc2)c1.Cc1ccc(S(=O)(=O)[O-])cc1.Cc1ccc(S(=O)(=O)[O-])cc1 = 56

Your task in this section: give LD10 for each listed record.
1. CC[n+]1cccc(NC(=O)c2ccc(NC(=O)C34CCC(C(=O)Nc5ccc(C(=O)Nc6ccc[n+](CC)c6)cc5)(CC3)CC4)cc2)c1.Cc1ccc(S(=O)(=O)[O-])cc1.Cc1ccc(S(=O)(=O)[O-])cc1
2. CCC[n+]1ccccc1-c1ccc(NC(=O)c2ccc(C(=O)Nc3ccc(-c4cccc[n+]4CCC)cc3)cc2)cc1.Cc1ccc(S(=O)(=O)[O-])cc1.Cc1ccc(S(=O)(=O)[O-])cc1
3. CCCC[n+]1cccc(NC(=O)c2ccc(NC(=O)c3ccc(C(=O)Nc4ccc5c(ccc[n+]5CCCC)c4)cc3)cc2)c1.Cc1ccc(S(=O)(=O)[O-])cc1.Cc1ccc(S(=O)(=O)[O-])cc1
4. CCC[n+]1ccc(Nc2ccc(C(=O)Nc3ccc(/C(C)=N/NC(=N)N)cc3)c(N)c2)c2cc(N)ccc21.Cc1ccc(S(=O)(=O)O)cc1.Cc1ccc(S(=O)(=O)[O-])cc1
5. CCCC[n+]1cccc2cc(NC(=O)c3ccc(-c4ccc(-c5ccc(-c6ccc(C(=O)Nc7ccc8c(ccc[n+]8CCCC)c7)cc6)cc5)cc4)cc3)ccc21.Cc1ccc(S(=O)(=O)[O-])cc1.Cc1ccc(S(=O)(=O)[O-])cc1

1: 27; 2: 11; 3: 32; 4: 60; 5: 57

The reported numbers originate from ChEMBL document CHEMBL3228010.
